system: RPMI-8226; assay: NCI tumour cell line growth inhibition, 48 h
Activity calls are given as the source filed them. Rule as the data show it: active = GI50 up to about 1.1 µM and inactive = higher.
observable: GI50

>>> meas_value("CCOC(=O)c1c2ccccc2n2c(N)c(C(N)=O)nnc12")
"> 100 µM (inactive)"

Dear colleague, could you please provide GI50 for the compounds listed below?
1. COc1ccc2oc3c(C)cc4c(OC)nnc(OC)c4c3c2c1
2. CCOC12SC(Nc3ccc(C)cc3)=NN1C(=S)N(C)N=C2C (stereo not given)
3. COC(=O)Cc1ccc(Oc2nc3ccccc3nc2-c2cccs2)cc1

Response line:
1. 4.93 µM (inactive)
2. > 100 µM (inactive)
3. > 100 µM (inactive)

Dear colleague, could you please provide GI50 for the compounds listed below?
1. N#CCN1c2ccccc2CCC1Cl (stereo not given)
2. C#Cc1cccc(N2C(=O)c3c(c(-c4ccccc4)c(-c4ccc(Cc5ccc(-c6c(-c7ccccc7)c7c(c(-c8ccccc8)c6-c6ccccc6)C(=O)N(c6cccc(C#C)c6)C7=O)cc5)cc4)c(-c4ccccc4)c3-c3ccccc3)C2=O)c1
3. COc1ccc(OC2(c3cc(OC)ccc3OC)OC(=O)c3ccccc32)cc1 (stereo not given)

Response line:
> 10 µM (inactive)
24.9 µM (inactive)
> 100 µM (inactive)

Dear colleague, could you please provide GI50 for the compounds listed below?
1. COc1ccc2c(c1)OCCCN(C)OC2c1ccccc1 (stereo not given)
2. Brc1ccc(CCNCCN2CCCCC2)cc1
3. O=c1cc(/N=N\c2ccc(Cl)cc2)[nH]c(=O)[nH]1

Response line:
1. > 100 µM (inactive)
2. 37.7 µM (inactive)
3. 3.19 µM (inactive)
